Where do the numbers come from? From patent US20170022281A1.

solution mAb binding, % of PRLR binding for assorted binders
System tested: T1, human PRLR (Biacore antigen) (human, UniProt P16471 25-234, limits assumed)
T1 construct: The construct injected over captured antibody is not described (a soluble form is likely); also called huPRLR
T1 sequence: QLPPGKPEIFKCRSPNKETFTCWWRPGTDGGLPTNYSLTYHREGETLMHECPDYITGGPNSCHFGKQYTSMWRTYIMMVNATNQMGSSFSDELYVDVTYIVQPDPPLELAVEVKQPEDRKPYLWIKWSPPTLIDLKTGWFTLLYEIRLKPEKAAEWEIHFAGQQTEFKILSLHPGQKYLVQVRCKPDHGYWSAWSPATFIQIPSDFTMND
Test name: SPR simultaneous binding; PRLR held by surface mAb Ab49
Quick reminder: number only, in %, skip the unit.

Reference set, count: 2
1) LFA102 (antibody, human IgG1, kappa, V domains shown, humanized IgG1 kappa comparator (WO 2008022295)) VH: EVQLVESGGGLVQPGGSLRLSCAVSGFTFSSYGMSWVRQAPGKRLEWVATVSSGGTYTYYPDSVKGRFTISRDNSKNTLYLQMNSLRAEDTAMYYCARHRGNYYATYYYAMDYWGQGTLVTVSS VL: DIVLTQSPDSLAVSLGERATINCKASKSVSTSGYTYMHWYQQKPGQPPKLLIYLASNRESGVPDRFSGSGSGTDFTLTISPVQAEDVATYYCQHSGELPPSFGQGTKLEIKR | 1
2) chAb7 (antibody, human IgG1, kappa, V domains shown, chimeric, murine variable and human G1/kappa constant regions) VH: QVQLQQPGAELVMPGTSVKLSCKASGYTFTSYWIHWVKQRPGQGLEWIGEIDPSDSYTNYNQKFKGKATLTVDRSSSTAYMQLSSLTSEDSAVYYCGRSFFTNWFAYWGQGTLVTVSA VL: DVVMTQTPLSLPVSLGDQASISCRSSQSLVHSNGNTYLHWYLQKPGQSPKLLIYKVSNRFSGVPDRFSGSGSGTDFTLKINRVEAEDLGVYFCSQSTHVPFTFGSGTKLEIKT | 2

Read the next record carefully.
# get_value(readout='solution mAb binding, % of PRLR binding', item= Ab49 (antibody, human IgG1, kappa, V domains shown, humanized from Ab8; G1; also called Ab3 HC.1a and Ab3 LC.1b) VH: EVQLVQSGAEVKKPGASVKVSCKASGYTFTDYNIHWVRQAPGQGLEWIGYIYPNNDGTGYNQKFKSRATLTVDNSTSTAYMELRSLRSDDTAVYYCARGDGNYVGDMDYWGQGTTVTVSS VL: DIQMTQSPSSLSASVGDRVTITCRASENIYSYLAWYQQKPGKAPKLLVYNAKTLAEGVPSRFSGSGSGTDFTLTISSLQPEDFATYYCQHHYATPFTFGQGTKLEIKR ) -1
